Where do the numbers come from? From PubChem BioAssay.

- target.or.system: Potassium voltage-gated channel subfamily KQT member 2 (Rattus norvegicus)
- protocol.details: rat KCNQ2 channel potentiation, selectivity assay for KCNQ1 potentiator project, KCNQ2-CHO-K1 cells (AID 493009);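 further: assay conditions were tuned for KCNQ1 rather than KCNQ2 modulators; signal is max minus min fluorescence divided by baseline after thallium stimulus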
- stated.conditions: FluxOR thallium flux fluorescence, at 10 µM, scaled: buffer 0, activator control 100
Activity calls are given as the source filed them.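 How the source made its calls: active means mean duplicate potentiation above the buffer control mean plus 5 SD of buffer wells; inactive means the rest.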
Thanks in advance; please answer with one of these: active, inactive

Before answering, review these 5 worked examples.
1. O=C(COc1ccccc1Cl)NC(=S)N1CCc2ccccc21; inactive
2. CCc1ccc(NC(=S)NC2CC3CCCC(C2)N3Cc2cccs2)cc1 (configuration not stated); inactive
3. COc1ccc(NC(=S)N2CCC(C(O)(c3ccccc3)c3ccccc3)CC2)cc1; active
4. O=C(COc1ccccc1Cl)N(Cc1cccs1)C1CCS(=O)(=O)C1 (configuration not stated); inactive
5. Cc1ccc2nc(NC(=O)c3ccc(Br)o3)sc2c1; inactive

Ask | // return assay outcome for COCCCn1c(=S)[nH]c2c(sc3ccccc32)c1=O
Reply | active

Ask | Recorded test call requested for CCn1c(O)c(N=NC(=S)NCC2CCCO2)c2ccccc21 (configuration not stated)
Reply | inactive

###

- protocol.details: calcium flux activation in mu-opioid HEK293 cells, confirmation, counter-screen for TRPC4 activator project, cell-based, HEK293 mu-opioid receptor line (AID 449723);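 further: counter screen cells carry the mu-opioid receptor alone and lack TRPC4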
- stated.conditions: Fluo-4 calcium fluorescence, at 10 µM
Active and inactive are the calls of the source.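 The calls were made as follows: active = hit in primary screen, with calcium signal over 5 SD above buffer well mean in both duplicates; inactive = the rest.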
Lab note: assign the record to one of T (active), F (inactive)

Solved entries:
1) CCN1CCN(c2c(Cl)cccc2NC(=O)c2ccc3nsnc3c2)CC1; F
2) Cc1c(CN2CCC(n3nccc3NC(=O)C3CC3)CC2)[nH]c2ccccc12; F
3) CCCN(CCC)CCCNc1ccc2nnc(-c3ccc(F)cc3)n2n1; F

Ask | Which result was noted for this molecule in the test: CCCC(=O)N1CCc2cc(-c3nc(N)sc3C)ccc21
Reply | F

Ask | Please let me know the test result on file for CCOc1ccccc1N(CC(=O)N1CCOCC1)S(=O)(=O)c1ccccc1 .
Reply | T

Ask | Assay outcome for CC(Oc1ccc(Cl)cc1)C(=O)NNC(=S)NC(=O)c1ccco1 (stereo not given) : what was it?
Reply | T

Ask | What is the recorded call for this molecule in the test? OC(CNC1CCCc2ccccc21)COc1c(Cl)cccc1Cl (stereo not given)
Reply | T

Ask | Short answer needed: outcome of this test for OC(CNC1CCCc2ccccc21)COc1ccc2ccccc2c1 (stereo not given) ?
Reply | F

Ask | Field: outcome | Entry: O=C(c1sc2ccccc2c1Cl)N(Cc1cccs1)C1CCS(=O)(=O)C1 (stereo not given)
Reply | F

###

- target.or.system: Potassium voltage-gated channel subfamily KQT member 1 (Homo sapiens) (UniProt P51787)
- Sequence (P51787 whole entry, looked up): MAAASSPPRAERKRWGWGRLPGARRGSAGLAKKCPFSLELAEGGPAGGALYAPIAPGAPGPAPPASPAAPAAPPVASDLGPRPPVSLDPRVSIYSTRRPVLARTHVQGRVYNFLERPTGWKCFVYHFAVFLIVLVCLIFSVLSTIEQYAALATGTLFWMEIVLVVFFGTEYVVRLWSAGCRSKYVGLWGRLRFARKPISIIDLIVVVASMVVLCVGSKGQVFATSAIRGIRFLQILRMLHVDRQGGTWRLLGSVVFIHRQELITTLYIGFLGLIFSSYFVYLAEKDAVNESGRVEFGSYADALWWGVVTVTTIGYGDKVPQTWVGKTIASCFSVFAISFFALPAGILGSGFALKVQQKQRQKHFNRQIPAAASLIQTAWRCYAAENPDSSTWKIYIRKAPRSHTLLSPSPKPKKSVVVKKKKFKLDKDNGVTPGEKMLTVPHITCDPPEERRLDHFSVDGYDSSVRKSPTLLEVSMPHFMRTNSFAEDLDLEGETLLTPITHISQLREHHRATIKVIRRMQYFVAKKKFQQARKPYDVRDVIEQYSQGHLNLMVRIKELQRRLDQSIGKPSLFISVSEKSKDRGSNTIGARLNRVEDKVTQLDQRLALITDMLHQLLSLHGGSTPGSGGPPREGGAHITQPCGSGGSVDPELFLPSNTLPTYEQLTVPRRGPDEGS
- protocol.details: KCNQ1 channel current potentiators, confirmation, orthogonal assay for KCNQ1 potentiator project, IonWorks patch clamp, KCNQ1-CHO cells (AID 493184)
- stated.conditions: automated patch clamp current, at 10 µM
Activity calls are given as the source filed them.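 The calls were made as follows: active = current rise at least 3 SD above the untreated control mean in each of two repeat wells; inactive = the rest.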
Returns: one label drawn from active, inactive

Here are 5 compounds together with their reported answers.
1. O=C(NC(=S)NC1CCCc2ccccc21)c1ccc(F)cc1 (centres undefined); inactive
2. N#CCn1c(CCl)nc2ccccc2c1=O; inactive
3. COc1ccc(-n2nnnc2-c2ccccc2)cc1; inactive
4. COc1ccc(OC)c(NC(=S)N2CCC(C(O)(c3ccccc3)c3ccccc3)CC2)c1; inactive
5. Cn1cccc1/C=N/n1c(-c2ccc(C(C)(C)C)cc2)n[nH]c1=S; inactive

Ask | Kindly provide the recorded test outcome for the following compound: O=C(NC(=S)N1CCN(C/C=C/c2ccccc2)CC1)c1c(F)cccc1F
Reply | inactive

Ask | Lab log entry: CO/N=C/CC(=O)Nc1ccc(F)cc1F — outcome as called in the assay?
Reply | inactive

Ask | Which outcome was entered for the compound CC(CCc1ccccc1)NC(=O)COc1cc(F)ccc1[N+](=O)[O-] (centres undefined) in this test?
Reply | inactive

Ask | For Cc1cc(C(c2cc(C)c(N)c(C)c2)c2ccco2)cc(C)c1N , what call appears in the results of this test?
Reply | inactive

Ask | What did this assay record as the result for CN(C)CCCN(C(=O)CCOc1ccccc1)c1nc2c(F)cccc2s1 ?
Reply | inactive

Ask | I would be grateful if you could indicate the recorded call for CCc1ccc(NC(=O)C2CCN(C(=O)[C@@H]3Cc4ccccc4CN3)CC2)cc1 .
Reply | inactive
